Target: VIM-1 (Pseudomonas aeruginosa (strain ATCC 15692 / DSM 22644 / CIP 104116 / JCM 14847 / LMG 12228 / 1C / PRS 101 / PAO1))
Assay: biochemical
Details: fluorescence assay, CCF2-FA substrate, 30 pM enzyme, 2 hours at 25° C.; read-out: VIM-1 IC50
MEASURE: IC50 (nM)
Your answer is read as nM, so omit the unit and give the number.

[[record]]
compound = "C[C@H](CCN)NS(=O)(=O)c1ccc(-c2ccc(N)nc2)c(-c2nn[nH]n2)c1S(N)(=O)=O"
measure = "IC50"
endpoint_value = 0.0512

[[record]]
compound = "NCCNS(=O)(=O)c1ccc(-c2ccc3[nH]c(CN)nc3c2)c(-c2nn[nH]n2)c1S(N)(=O)=O"
measure = "IC50"
endpoint_value = 0.138

[[record]]
compound = "COc1ccnc(CNS(=O)(=O)c2ccc(-c3cccc4sc(N)nc34)c(-c3nnn[nH]3)c2S(N)(=O)=O)n1"
measure = "IC50"
endpoint_value = 0.329

[[record]]
compound = "Nc1nc2c(-c3ccc(S(=O)(=O)N4CCNC(=O)C4)c(S(N)(=O)=O)c3-c3nnn[nH]3)cccc2s1"
measure = "IC50"
endpoint_value = 0.726

[[record]]
compound = "Nc1nc2c(-c3ccc(S(=O)(=O)NCc4ccccn4)c(S(N)(=O)=O)c3-c3nnn[nH]3)cccc2s1.O=C(O)C(F)(F)F [Example 106, 2,2,2-trifluoroacetate]"
measure = "IC50"
endpoint_value = 0.236


Q: Value lookup for IC50; key = `Nc1nc2c(-c3ccc(S(=O)(=O)NCC4(O)CCNCC4)c(S(N)(=O)=O)c3-c3nnn[nH]3)cccc2s1`
Result: 0.0756

Q: And NCC(=O)NC1CCC[C@@H](c2ccc(S(=O)(=O)N[C@@H]3CCNC3)c(S(N)(=O)=O)c2-c2nn[nH]n2)C1 (stereo partly drawn) ?
Result: 0.202

Q: Now the compound `NCc1nc2cc(-c3ccc(S(=O)(=O)N[C@@H]4CCNC4)c(S(N)(=O)=O)c3-c3nn[nH]n3)ccc2[nH]1`
Result: 0.102

Q: Next compound up: `CNS(=O)(=O)c1ccc(-c2cccc3sc(N)nc23)c(-c2nn[nH]n2)c1S(N)(=O)=O`
Result: 0.195

Q: Then `NC[C@H](O)CNS(=O)(=O)c1ccc(-c2ccncc2N)c(-c2nn[nH]n2)c1S(N)(=O)=O` ?
Result: 0.445

Q: For `NS(=O)(=O)c1c(S(=O)(=O)N[C@@H]2CCNC2)ccc(-c2cccc3nonc23)c1-c1nn[nH]n1` then?
Result: 0.0653

Q: Now consider `Nc1nc2c(-c3ccc(S(=O)(=O)NCC4(F)CNC4)c(S(N)(=O)=O)c3-c3nnn[nH]3)cccc2s1` and answer again.
Result: 0.321
